# Test system: Glycine max
# assay: Crop compatibility pre-emergence (greenhouse pot trial)
# Format: in vivo
# assay-conditions: application rate 80 g/ha, effect vs untreated controls
# Description: Seeds of mono- and dicotyledonous weeds and crop plants were laid out in plastic or organic plant pots and covered with soil. […] After about 3 weeks, the efficacy of the preparations was scored visually as a percentage by comparison with untreated controls. […] Crop compatibilities were also scored correspondingly. […]
measured-quantity: Glycine max (Efficacy in %)

{"columns": ["compound", "measured-quantity", "unit-abbreviation", "quantitative-result"],
 "data": [
  ["CC(Sc1cc(-n2c(=O)cc(C(F)(F)F)n(C)c2=O)c(F)cc1Cl)C(=O)OC1CCCOC1 (centres unmarked)", "Glycine max (Efficacy in %)", "%", 10],
  ["CC(Sc1cc(-n2c(=O)cc(C(F)(F)F)n(C)c2=O)c(F)cc1Cl)C(=O)OC1CCSCC1 (centres unmarked)", "Glycine max (Efficacy in %)", "%", 20],
  ["CC1CC(COC(=O)C(C)Sc2cc(-n3c(=O)cc(C(F)(F)F)n(C)c3=O)c(F)cc2Cl)CO1 (centres unmarked)", "Glycine max (Efficacy in %)", "%", 0],
  ["CCC(Sc1cc(-n2c(=O)cc(C(F)(F)F)n(C)c2=O)c(F)cc1Cl)C(=O)OCC1CCCO1 (centres unmarked)", "Glycine max (Efficacy in %)", "%", 0],
  ["CCOCCCOC(=O)C(C)Sc1cc(-n2c(=O)cc(C(F)(F)F)n(C)c2=O)c(F)cc1Cl (centres unmarked)", "Glycine max (Efficacy in %)", "%", 20]
]}

The values you see were collected from patent US11497212B2.
